- Substrate: Cc1c[nH]c(=O)[nH]c1=O
- Measurement description: purified protein
- Format: biochemical, Neurospora crassa
- Test settings: 1 mM α-KG, 0.2 mM (NH4)2Fe(SO4)2, 0.2 mM ascorbic acid, 100 mM Hepes pH 7.5, 25 °C
Readout label: kcat/Km (M⁻¹ s⁻¹)
Report the figure in M⁻¹ s⁻¹ without appending any unit label.

Reported kcat/Km ( NcT7H (thymine-7-hydroxylase) (Neurospora crassa OR74A; Y217F) (protein, full length (residues 1-333), C-terminal His6-tag, pET-28a, expressed in E. coli BL21(DE3); Ni-NTA and gel filtration, tag removal not mentioned) MEKAAVNEDGLVIPLIDFSKFLEGDETLKLETAKAILHGFQTAGFIYLKNIPIQPDFREHVFNTSAKFFKLPKEKKLEVGWTTPEANRGYSAPGREKVTQLTDPAEIEKIRSAAPDIKESYEIGREDEPGHPNPWPAEQDDLVGFKSTMNNFFDQCKALHIEVMRAIAVGMGIDANYFDSFVDVGDNILRLLHYPAVKSEVFKINPGQVRAGEHTDFGSITLLFQDSRGGLQVKSPNGQFIDATPIENTVVVNAGDLLARWSNDTIKSTVHRVVEPPKQEDVHPPRYSIAYFCNPNHKSYIEAIPGTYAAESERKYEGINSGKYLVQRLAATY ) = 4230

Reported kcat/Km ( NcT7H (thymine-7-hydroxylase) (Neurospora crassa OR74A; R190K) (protein, full length (residues 1-333), C-terminal His6-tag, pET-28a, expressed in E. coli BL21(DE3); Ni-NTA and gel filtration, tag removal not mentioned) MEKAAVNEDGLVIPLIDFSKFLEGDETLKLETAKAILHGFQTAGFIYLKNIPIQPDFREHVFNTSAKFFKLPKEKKLEVGWTTPEANRGYSAPGREKVTQLTDPAEIEKIRSAAPDIKESYEIGREDEPGHPNPWPAEQDDLVGFKSTMNNFFDQCKALHIEVMRAIAVGMGIDANYFDSFVDVGDNILKLLHYPAVKSEVFKINPGQVRAGEHTDYGSITLLFQDSRGGLQVKSPNGQFIDATPIENTVVVNAGDLLARWSNDTIKSTVHRVVEPPKQEDVHPPRYSIAYFCNPNHKSYIEAIPGTYAAESERKYEGINSGKYLVQRLAATY ) = 100

Reported kcat/Km ( NcT7H (thymine-7-hydroxylase) (Neurospora crassa OR74A; R286A) (protein, full length (residues 1-333), C-terminal His6-tag, pET-28a, expressed in E. coli BL21(DE3); Ni-NTA and gel filtration, tag removal not mentioned) MEKAAVNEDGLVIPLIDFSKFLEGDETLKLETAKAILHGFQTAGFIYLKNIPIQPDFREHVFNTSAKFFKLPKEKKLEVGWTTPEANRGYSAPGREKVTQLTDPAEIEKIRSAAPDIKESYEIGREDEPGHPNPWPAEQDDLVGFKSTMNNFFDQCKALHIEVMRAIAVGMGIDANYFDSFVDVGDNILRLLHYPAVKSEVFKINPGQVRAGEHTDYGSITLLFQDSRGGLQVKSPNGQFIDATPIENTVVVNAGDLLARWSNDTIKSTVHRVVEPPKQEDVHPPAYSIAYFCNPNHKSYIEAIPGTYAAESERKYEGINSGKYLVQRLAATY ) = 617

Reported kcat/Km ( NcT7H (thymine-7-hydroxylase) (Neurospora crassa OR74A) (protein, full length (residues 1-333), C-terminal His6-tag, pET-28a, expressed in E. coli BL21(DE3); Ni-NTA and gel filtration, tag removal not mentioned) MEKAAVNEDGLVIPLIDFSKFLEGDETLKLETAKAILHGFQTAGFIYLKNIPIQPDFREHVFNTSAKFFKLPKEKKLEVGWTTPEANRGYSAPGREKVTQLTDPAEIEKIRSAAPDIKESYEIGREDEPGHPNPWPAEQDDLVGFKSTMNNFFDQCKALHIEVMRAIAVGMGIDANYFDSFVDVGDNILRLLHYPAVKSEVFKINPGQVRAGEHTDYGSITLLFQDSRGGLQVKSPNGQFIDATPIENTVVVNAGDLLARWSNDTIKSTVHRVVEPPKQEDVHPPRYSIAYFCNPNHKSYIEAIPGTYAAESERKYEGINSGKYLVQRLAATY ) = 2950

Reported kcat/Km ( NcT7H (thymine-7-hydroxylase) (Neurospora crassa OR74A; N87A) (protein, full length (residues 1-333), C-terminal His6-tag, pET-28a, expressed in E. coli BL21(DE3); Ni-NTA and gel filtration, tag removal not mentioned) MEKAAVNEDGLVIPLIDFSKFLEGDETLKLETAKAILHGFQTAGFIYLKNIPIQPDFREHVFNTSAKFFKLPKEKKLEVGWTTPEAARGYSAPGREKVTQLTDPAEIEKIRSAAPDIKESYEIGREDEPGHPNPWPAEQDDLVGFKSTMNNFFDQCKALHIEVMRAIAVGMGIDANYFDSFVDVGDNILRLLHYPAVKSEVFKINPGQVRAGEHTDYGSITLLFQDSRGGLQVKSPNGQFIDATPIENTVVVNAGDLLARWSNDTIKSTVHRVVEPPKQEDVHPPRYSIAYFCNPNHKSYIEAIPGTYAAESERKYEGINSGKYLVQRLAATY ) = 367
